Recorded IC50, one value per entry.
Measurement Target: Electric eel acetyl-cholinesterase enzyme (AchE, Type-VI-S; EC 3.1.1.7) (Electrophorus electricus)
Sequence (O42275 24-633): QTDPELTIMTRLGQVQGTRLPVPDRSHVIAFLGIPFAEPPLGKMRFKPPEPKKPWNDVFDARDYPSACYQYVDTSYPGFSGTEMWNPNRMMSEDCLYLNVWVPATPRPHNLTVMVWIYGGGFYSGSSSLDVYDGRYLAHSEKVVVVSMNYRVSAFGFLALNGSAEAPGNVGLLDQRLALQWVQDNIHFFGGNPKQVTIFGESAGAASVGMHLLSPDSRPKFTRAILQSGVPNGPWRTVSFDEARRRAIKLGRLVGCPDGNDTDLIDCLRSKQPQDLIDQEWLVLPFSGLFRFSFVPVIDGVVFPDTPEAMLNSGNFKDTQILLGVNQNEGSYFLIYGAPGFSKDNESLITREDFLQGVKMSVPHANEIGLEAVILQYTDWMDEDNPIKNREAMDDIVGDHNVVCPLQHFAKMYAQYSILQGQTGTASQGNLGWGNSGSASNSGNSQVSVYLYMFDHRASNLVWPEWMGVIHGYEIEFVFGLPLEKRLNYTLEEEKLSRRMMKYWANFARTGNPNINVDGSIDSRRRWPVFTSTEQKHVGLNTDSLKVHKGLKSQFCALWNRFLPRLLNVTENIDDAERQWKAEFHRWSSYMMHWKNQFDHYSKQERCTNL
Assay Name: biochemical
Reported Conditions: mean ± S.D. of three independent experiments; Tris-HCl pH 8.00, 412 nm

Smi	IC50
COc1cc(C(C)=O)ccc1OCc1cn(CCCCn2cc(COc3ccc(C(C)=O)cc3OC)nn2)nn1	57 µM
CC(=O)c1ccc(OCc2cn(CCCCn3cc(COc4ccc(C(C)=O)cc4)nn3)nn2)cc1	52.3 µM
O=Cc1ccc(OCc2cn(CCCCCCCCn3cc(COc4ccc(C=O)cc4)nn3)nn2)cc1	63.4 µM
COc1cc(C=O)ccc1OCc1cn(CCCn2cc(COc3ccc(C=O)cc3OC)nn2)nn1	74.7 µM
